- Tested on: S. aureus ATCC 29213
- Format: cell-based, Staphylococcus aureus
- measurement setup: ATCC 29213, 5 h
Where no end group is shown, it is not given here.
Attribute: MBC with NaCl
measure name: MBC with NaCl

INSERT INTO assay_data (substance, measure_name, result) VALUES
  ('AKLWLKAAKLWLKAAKLWLKAAKLWLKA-NH2 [AA4]', 'MBC with NaCl', '32 µM'),
  ('GKLWLKGGKLWLKGGKLWLKG-NH2 [GG3]', 'MBC with NaCl', '16 µM'),
  ('GKLWLKGGKLWLKG-NH2 [GG2]', 'MBC with NaCl', '>128 µM'),
  ('AKLWLKAAKLWLKAAKLWLKA-NH2 [AA3]', 'MBC with NaCl', '4 µM'),
  ('AKLWLKAAKLWLKA-NH2 [AA2]', 'MBC with NaCl', '128 µM');

Reference for the values: paper PMC4632126
